Listing of recorded IC50 by entry.
Biological target: recombinant TDP1 (Homo sapiens)
Sequence (Q9NUW8 whole entry): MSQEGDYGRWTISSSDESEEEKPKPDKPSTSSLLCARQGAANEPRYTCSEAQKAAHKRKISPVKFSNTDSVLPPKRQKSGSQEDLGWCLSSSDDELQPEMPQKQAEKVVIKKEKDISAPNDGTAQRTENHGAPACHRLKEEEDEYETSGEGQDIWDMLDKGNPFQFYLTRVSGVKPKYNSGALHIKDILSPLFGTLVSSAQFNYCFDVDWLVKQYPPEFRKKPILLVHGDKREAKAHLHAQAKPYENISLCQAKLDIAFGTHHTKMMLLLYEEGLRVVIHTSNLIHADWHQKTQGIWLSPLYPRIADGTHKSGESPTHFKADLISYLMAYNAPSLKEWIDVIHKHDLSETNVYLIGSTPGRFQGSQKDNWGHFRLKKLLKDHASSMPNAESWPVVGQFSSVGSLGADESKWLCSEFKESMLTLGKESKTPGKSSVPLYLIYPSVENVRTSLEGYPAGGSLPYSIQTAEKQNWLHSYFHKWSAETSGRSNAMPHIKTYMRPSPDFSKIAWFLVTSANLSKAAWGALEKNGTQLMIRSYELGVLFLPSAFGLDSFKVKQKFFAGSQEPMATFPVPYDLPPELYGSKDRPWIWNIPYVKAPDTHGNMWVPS
Experiment: Gel-based assay measuring the inhibition of recombinant TDP1
Type: biochemical
Settings: Table 5; determined in duplicate; read-out: TDP1 (IC50, semiquantitative scale)

MOLECULE: COc1cc2c(=O)n(CCCN3CCOCC3)c3c(c2cc1OCCCN1CCCC1)C(=O)c1cc2c(cc1-3)OCO2
IC50: 1 to 37 µM
//
MOLECULE: COc1cc2c(=O)n(CCCN3CCOCC3)c3c(c2cc1OCCCN)C(=O)c1cc2c(cc1-3)OCO2
IC50: 37 to 111 µM

Turning to the following molecule.
Give the reported IC50 for this molecule. COc1cc2c(=O)n(CCCN3CCOCC3)c3c(c2cc1OCC(=O)NN)C(O)c1cc2c(cc1-3)OCO2 (stereo not drawn)
> 111 µM

----------
System: lung HOP-62
Test: COMPARE screening (NCI human cancer cell line screen), cytotoxicity GI50
Format: cell-based
Settings: lung HOP-62; concentration corresponding to 50% growth inhibition; read-out: cytotoxicity (GI50 in μM) lung HOP-62
REPORTED_PROPERTY: GI50 (µM)
Form entry: value (µM) — number only.

Guide cases for GI50, answers given:
MOLECULE: CC(C)(C)OC(=O)N(CCCN(CCn1c2c(c3ccccc3c1=O)C(=O)c1ccccc1-2)C(=O)OC(C)(C)C)CCn1c2c(c3ccccc3c1=O)C(=O)c1ccccc1-2 [Compound 13a]
DISPLAY_UNIT: µM
GI50: 22.4

MOLECULE: O=C(O)C(F)(F)F.O=C(O)C(F)(F)F.O=C1c2ccccc2-c2c1c1ccc([N+](=O)[O-])cc1c(=O)n2CCNCCCNCCn1c2c(c3ccc([N+](=O)[O-])cc3c1=O)C(=O)c1ccccc1-2 [Compound 14m]
DISPLAY_UNIT: µM
GI50: 0.631

MOLECULE: O=C(O)C(F)(F)F.O=C(O)C(F)(F)F.O=C1c2ccccc2-c2c1c1ccc([N+](=O)[O-])cc1c(=O)n2CCCNCCCNCCCn1c2c(c3ccc([N+](=O)[O-])cc3c1=O)C(=O)c1ccccc1-2 [Compound 14n]
DISPLAY_UNIT: µM
GI50: 3.02

MOLECULE: O=C(O)C(F)(F)F.O=C(O)C(F)(F)F.O=C1c2ccccc2-c2c1c1ccccc1c(=O)n2CCNCCCNCCn1c2c(c3ccccc3c1=O)C(=O)c1ccccc1-2 [Compound 14d]
DISPLAY_UNIT: µM
GI50: 0.339

MOLECULE: COc1cc2c3c(n(CCNCCCNCCn4c5c(c6cc(OC)c(OC)cc6c4=O)C(=O)c4ccccc4-5)c(=O)c2cc1OC)-c1ccccc1C3=O.O=C(O)C(F)(F)F.O=C(O)C(F)(F)F [Compound 14k]
DISPLAY_UNIT: µM
GI50: 0.068

MOLECULE: COc1cc2c3c(n(CCCNCCCNCCCn4c5c(c6cc(OC)c(OC)cc6c4=O)C(=O)c4ccccc4-5)c(=O)c2cc1OC)-c1ccccc1C3=O.O=C(O)C(F)(F)F.O=C(O)C(F)(F)F [Compound 14l]
DISPLAY_UNIT: µM
GI50: 1.51

Write down GI50 measured for item CC(C)(C)OC(=O)N(CCCCN(CCCn1c2c(c3ccccc3c1=O)C(=O)c1ccccc1-2)C(=O)OC(C)(C)C)CCCn1c2c(c3ccccc3c1=O)C(=O)c1ccccc1-2 [Compound 13d]
11

Identify measured GI50 associated with CC(C)(C)OC(=O)N(CCCn1c2c(c3ccccc3c1=O)C(=O)c1ccccc1-2)CCN(CCCn1c2c(c3ccccc3c1=O)C(=O)c1ccccc1-2)C(=O)OC(C)(C)C [Compound 13b]
20

Specify measured GI50 for COc1cc2c3c(n(CCCNCCCNCCCn4c5c(c6ccccc6c4=O)C(=O)c4ccccc4-5)c(=O)c2cc1OC)-c1cc2c(cc1C3=O)OCO2.O=C(O)C(F)(F)F.O=C(O)C(F)(F)F [Compound 17a] .
0.191

----------
// reported GI50 for each item listed
System: ovarian OVCAR-3
Assay: COMPARE screening (NCI human cancer cell line screen), cytotoxicity GI50
Format: cell-based
Conditions: Homo sapiens, OVCAR-3, read-out: cytotoxicity (GI50) ovarian OVCAR-3
Numeric only. Scale: µM

Report value: GI50, system: ovarian OVCAR-3, compound: Cl.NCCCCCCCCCCn1c2c(c3ccccc3c1=O)C(=O)c1ccccc1-2 [Compound 5at, Hydrochloride]
10.7

Report measured GI50 on ovarian OVCAR-3; entry: Cl.NCCCCCn1c2c(c3ccccc3c1=O)C(=O)c1ccccc1-2 [Compound 5ao, Hydrochloride]
0.708

Please report GI50 with ovarian OVCAR-3 for item Cl.NCCCCCCCCCCCn1c2c(c3ccccc3c1=O)C(=O)c1ccccc1-2 [Compound 5au, Hydrochloride] .
2.09

Consider the compound O=C1c2ccccc2-c2c1c1ccccc1c(=O)n2Cc1ccccn1 tested on ovarian OVCAR-3; state its GI50.
13.8

Report GI50 under test system ovarian OVCAR-3 for Cl.NCCCCCCn1c2c(c3ccccc3c1=O)C(=O)c1ccccc1-2 [Compound 5ap, Hydrochloride] .
2

----------
Each entry below carries its recorded GI50.
System: renal SN12C
Assay: COMPARE screening (NCI human cancer cell line screen), cytotoxicity GI50
Format: cell-based
Settings: renal SN12C; concentration corresponding to 50% growth inhibition; read-out: cytotoxicity (GI50 in μM) renal SN12C
API: value field is a number in µM; no unit string.

Below are worked cases with known answers.
COMPOUND: O=C(O)C(F)(F)F.O=C(O)C(F)(F)F.O=C1c2ccccc2-c2c1c1ccc([N+](=O)[O-])cc1c(=O)n2CCNCCCNCCn1c2c(c3ccc([N+](=O)[O-])cc3c1=O)C(=O)c1ccccc1-2 [Compound 14m]
EXPERIMENTAL_RESULT: 0.123

COMPOUND: O=C(O)C(F)(F)F.O=C(O)C(F)(F)F.O=C1c2ccccc2-c2c1c1ccc([N+](=O)[O-])cc1c(=O)n2CCCNCCCNCCCn1c2c(c3ccc([N+](=O)[O-])cc3c1=O)C(=O)c1ccccc1-2 [Compound 14n]
EXPERIMENTAL_RESULT: 1.17

COMPOUND: CN(CCCn1c2c(c3ccccc3c1=O)C(=O)c1ccccc1-2)CCCn1c2c(c3ccccc3c1=O)C(=O)c1ccccc1-2 [Compound 12d]
EXPERIMENTAL_RESULT: 0.589

Now look at this one.
Answer with the recorded GI50 for the compound listed here: COc1cc2c3c(n(CCCNCCCNCCCn4c5c(c6cc(OC)c(OC)cc6c4=O)C(=O)c4ccccc4-5)c(=O)c2cc1OC)-c1ccccc1C3=O.O=C(O)C(F)(F)F.O=C(O)C(F)(F)F [Compound 14l]
0.24

----------
Tested on: CNS SF-539
Assay: COMPARE screening (NCI human cancer cell line screen), cytotoxicity GI50
Type: cell-based
Details: Homo sapiens, CNSSF-539, 48 h, read-out: Cytotoxicity (GI50) CNS SF-539
REPORTED_PROPERTY: GI50 (nM)
All answers are understood in nM, so give the number only.

Please supply the value of reported GI50 for the item COc1cc2c(=O)n(CCCN3CCOCC3)c3c(c2cc1OCCCN1CCCC1)C(=O)c1cc2c(cc1-3)OCO2
200

Could you please provide reported GI50 for C=CCOc1cc2c3c(n(CCCN4CCOCC4)c(=O)c2cc1OC)-c1cc2c(cc1C3=O)OCO2 ? Thanks!
10

For the molecule COc1cc2c(=O)n(CCCN3CCOCC3)c3c(c2cc1OCCCN1CCOCC1)C(=O)c1cc2c(cc1-3)OCO2 , give its reported GI50.
100

----------
Test system: ovarian OVCAR-3
Test: COMPARE screening (NCI human cancer cell line screen), cytotoxicity GI50
Format: cell-based
REPORTED_PROPERTY: GI50 (µM)
Give a bare numeral; the unit µM is implied.

COMPOUND: CN(C)CCCn1c2c(c3cc4c(cc3c1=O)OCO4)C(=O)c1ccccc1-2 [Compound 5b]
TGT: ovarian OVCAR-3
REPORTED_PROPERTY: GI50
EXPERIMENTAL_RESULT: 2.63
--
COMPOUND: COc1cc2c3c(n(CCCn4cncn4)c(=O)c2cc1OC)-c1cc2c(cc1C3=O)OCO2.Cl [Compound 5n, Hydrochloride]
TGT: ovarian OVCAR-3
REPORTED_PROPERTY: GI50
EXPERIMENTAL_RESULT: 61.7
--
COMPOUND: O=C(O)C(F)(F)F.O=C(O)C(F)(F)F.O=C1c2ccccc2-c2c1c1ccccc1c(=O)n2CCCNCCNCCCn1c2c(c3ccccc3c1=O)C(=O)c1ccccc1-2 [Compound 14e]
TGT: ovarian OVCAR-3
REPORTED_PROPERTY: GI50
EXPERIMENTAL_RESULT: 1.02
--
COMPOUND: CC(C)(C)OC(=O)NCCCCCCCCCCCn1c2c(c3ccccc3c1=O)C(=O)c1ccccc1-2 [Compound 5aj]
TGT: ovarian OVCAR-3
REPORTED_PROPERTY: GI50
EXPERIMENTAL_RESULT: 70.8
--
COMPOUND: Cl.NCCCCn1c2c(c3ccccc3c1=O)C(=O)c1ccccc1-2 [Compound 5an]
TGT: ovarian OVCAR-3
REPORTED_PROPERTY: GI50
EXPERIMENTAL_RESULT: 0.52
--
COMPOUND: CC(C)(C)OC(=O)NCCCCCCCn1c2c(c3ccccc3c1=O)C(=O)c1ccccc1-2 [Compound 5af]
TGT: ovarian OVCAR-3
REPORTED_PROPERTY: GI50
EXPERIMENTAL_RESULT: 33.9
--
COMPOUND: Cl.O=C1c2ccccc2-c2c1c1ccccc1c(=O)n2CCCNCCO [Compound 5bo]
TGT: ovarian OVCAR-3
REPORTED_PROPERTY: GI50
EXPERIMENTAL_RESULT: 0.55
--
COMPOUND: COc1ccc2c(c1)C(=O)c1c-2n(CCCN=[N+]=[N-])c(=O)c2ccccc12 [Compound 5bf]
TGT: ovarian OVCAR-3
REPORTED_PROPERTY: GI50
EXPERIMENTAL_RESULT: 52.5
--
COMPOUND: COc1cc2c3c(n(CCCN4CCN(CCO)CC4)c(=O)c2cc1OC)-c1cc2c(cc1C3=O)OCO2 [Compound 5w]
TGT: ovarian OVCAR-3
REPORTED_PROPERTY: GI50
EXPERIMENTAL_RESULT: 15.1
--
COMPOUND: COc1cc2c3c(n(CCCn4cccn4)c(=O)c2cc1OC)-c1cc2c(cc1C3=O)OCO2 [Compound 5m]
TGT: ovarian OVCAR-3
REPORTED_PROPERTY: GI50
EXPERIMENTAL_RESULT: 56.2

Proceed to the following item.
Name the recorded GI50 of the item COc1cc2c(=O)n(CCCN3CCOCC3)c3c(c2cc1O)C(=O)c1cc2c(cc1-3)OCO2 [Compound 18] in your answer.
0.9
